target: CDK2/cyclin E (Homo sapiens); experiment: CDK2/cyclin E Flashplate test in 96-well format; assay type: biochemical; settings: read-out: CDK2 IC50
pIC50: −log10 of the molar value. Counter-ions that a name gives are not always drawn.
Give true when the value for pIC50 is at least 7. Give false when it is less.

Study these solved cases before continuing.
CC(C)NCCNc1ccc(S(=O)(=O)Oc2ccc3nc(NC(=O)CCCCCCCN)sc3c2)cc1 [Example 21, hydrochloride] :: false
CCC(=O)Nc1nc2ccc(OS(=O)(=O)c3ccc(NCCN(C(C)C)C(C)C)cc3)cc2s1 [Example 57, hydrochloride] :: true
CC(C)(O)CNc1ccc(S(=O)(=O)Oc2ccc3nc(NC(=O)CCC4CCNCC4)sc3c2)cc1 [Example 84, hydrochloride] :: false

Next compound, please.
Given the entry CC(=O)Nc1nc2ccc(OS(=O)(=O)c3ccc(NCCN(C(C)C)C(C)C)cc3)cc2s1 [Example 43] , answer whether its pIC50 meets or surpasses 7.
true

----------
Provide the reported pIC50 of each item.
target: CDK4/cyclin D1 (Homo sapiens); assay: CDK4/cyclin D1 Flashplate test in 96-well format
Sequence (P11802 whole entry): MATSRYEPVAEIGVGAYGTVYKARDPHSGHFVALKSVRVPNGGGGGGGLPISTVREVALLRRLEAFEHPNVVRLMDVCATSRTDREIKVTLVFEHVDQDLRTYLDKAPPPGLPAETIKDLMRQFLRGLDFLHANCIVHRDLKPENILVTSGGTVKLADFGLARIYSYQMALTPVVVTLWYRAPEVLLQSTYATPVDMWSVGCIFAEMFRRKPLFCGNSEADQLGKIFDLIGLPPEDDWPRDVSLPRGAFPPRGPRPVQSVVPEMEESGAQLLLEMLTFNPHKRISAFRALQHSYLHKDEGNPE
Sequence (P24385 whole entry partner): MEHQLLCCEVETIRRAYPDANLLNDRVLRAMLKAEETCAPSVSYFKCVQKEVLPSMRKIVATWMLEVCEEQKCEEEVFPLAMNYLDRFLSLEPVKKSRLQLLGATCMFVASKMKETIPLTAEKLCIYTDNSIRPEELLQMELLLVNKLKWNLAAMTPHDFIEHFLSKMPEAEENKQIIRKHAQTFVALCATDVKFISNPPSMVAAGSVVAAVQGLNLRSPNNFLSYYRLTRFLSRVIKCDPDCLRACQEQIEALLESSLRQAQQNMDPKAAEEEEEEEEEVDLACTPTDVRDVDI
pIC50: −log10 of the molar value.

O=C(Nc1nc2ccc(OS(=O)(=O)c3ccc(F)cc3)cc2s1)C1CC1 :: < 5.00
O=C(CCC1CCNCC1)Nc1nc2ccc(OS(=O)(=O)c3cccs3)cc2s1 [Example 33a, trifluoroacetic acid] :: < 5.00

We next turn to a different compound, shown below.
Recall and state the measured pIC50 for CC(C)N(CCNc1ccc(S(=O)(=O)Oc2ccc3nc(NC(=O)C4(N)CCCC4)sc3c2)cc1)C(C)C .
< 5.00

----------
biological target: CDK2/cyclin E (Homo sapiens, UniProt P24941); assay: CDK2/cyclin E Flashplate test in 96-well format; type: biochemical; settings: read-out: CDK2 IC50
Would you kindly list IC50 for each of these molecules?
Give bare numbers, in nM.

O=C(Nc1nc2ccc(OS(=O)(=O)c3ccc(NCCCn4ccnc4)cc3)cc2s1)C1CC1 [Example 9] :: 68
CC(C)(O)CNc1ccc(S(=O)(=O)Oc2ccc3nc(NC(=O)CCc4cccnc4)sc3c2)cc1 [Example 63] :: 79

# input for lookup
Please report the measured IC50 for O=C(Nc1nc2ccc(OS(=O)(=O)c3ccc(NC4CCCC4)cc3)cc2s1)C1CC1 [Example 8]
86
